For each entry below, report its TGI value.
Tested on: CCRF-CEM leukemia
Experiment: NCI tumour cell line growth inhibition, 48 h

Entry "Cc1cc(C)c(S(=O)(=O)N(CCCN)OCCCN)c(C)c1" under CCRF-CEM leukemia had TGI of > 100 µM

Entry Nc1ncnc2c1ncn2CCOC(c1ccccc1)P(=O)(O)O (centres undefined) under CCRF-CEM leukemia had TGI of > 100 µM

Entry CC1=C2CC(C)(C)CC(=O)C2(C)CCC1=O (centres undefined) under CCRF-CEM leukemia had TGI of > 100 µM

Entry COC(=O)C1(Cc2ccccc2)Cc2c(C)ccc(C)c2C1=O (centres undefined) under CCRF-CEM leukemia had TGI of > 100 µM

Entry "Cc1cc(-c2ccco2)cc(C)c1/C=C/c1cncc(-c2nn[nH]n2)c1" under CCRF-CEM leukemia had TGI of > 25 µM

Entry "CSc1nc(C)c(CCOC(C)=O)c(N=P(c2ccccc2)(c2ccccc2)c2ccccc2)n1" under CCRF-CEM leukemia had TGI of > 10 µM

Entry CC1=NN(C(=O)c2ccc(C)cc2)C(=O)C1N=Nc1ccccc1C(=O)O (centres undefined) under CCRF-CEM leukemia had TGI of > 100 µM

Entry "Cc1cc2c(cc1C)[n+](=O)c(C(=O)/C=C/c1ccccc1[N+](=O)[O-])c(C)n2[O-]" under CCRF-CEM leukemia had TGI of > 100 µM

Entry "O=C(/C=C/c1cccs1)c1ccc([N+](=O)[O-])cc1" under CCRF-CEM leukemia had TGI of > 100 µM

###

Test system: SK-MEL-28 melanoma
Test: NCI tumour cell line growth inhibition, 48 h
For each entry below, report its GI50 value.

Entry under test: CN(C)c1ccc2c(c1)OC(N)=C(C#N)C2c1ccc2c(c1)CCCN2C (stereo unspecified) . Its GI50 was 11 µM

Entry under test: "Cc1ccc(C(=O)N2C/C(=C/c3ccccc3)C(=O)/C(=C/c3ccccc3)C2)cc1" . Its GI50 was 8.98 µM

Entry under test: "CC1=NN(c2nc(N)nc(/C=C\c3ccccc3)n2)C(C)(C)C1" . Its GI50 was 9.41 µM

Entry under test: "CCN(CC)Cc1cc(Nc2cc(C(F)(F)F)c(C#N)c3nc4ccccc4n23)ccc1O" . Its GI50 was 2.69 µM

Entry under test: "O=C(Nc1cccc(-n2cc(-c3ccncc3)c(-c3ccc(O)c(Cl)c3)n2)c1)Nc1ccc(Cl)c(Cl)c1" . Its GI50 was 1.8 µM

Entry under test: "CC/C(=C(/c1ccc(/C=C/C(=O)O)cc1)c1ccc2[nH]ncc2c1)c1ccc(F)cc1Cl" . Its GI50 was 7.25 µM

Entry under test: "CCc1ccc(C2=NN(c3ccc(S(C)(=O)=O)cc3)C(=O)CC2)cc1" . Its GI50 was 1.59 µM

Entry under test: N#Cc1cccc(C2C3=C(COC3=O)N(CCO)c3cc4c(cc32)CCC4)c1 (stereo unspecified) . Its GI50 was 0.437 µM

Entry under test: "CCOC(=O)c1cc2cc(OCc3ccccc3)ccc2[nH]1" . Its GI50 was > 100 µM

Entry under test: "COC(=O)C1=Nc2ccc(F)cc2/C1=C/c1sc(=S)[nH]c1O" . Its GI50 was 1.06 µM

Entry under test: "Cc1ccc(NC2=CC(=O)C(=O)c3ccccc32)c(C)c1" . Its GI50 was 3.54 µM

Entry under test: "Nc1ccn([C@@H]2S[C@H](CO)[C@@H](O)[C@@H]2F)c(=O)n1" . Its GI50 was > 100 µM

Entry under test: "N=C(N)c1ccc(OCCCCCOc2ccc(C(=N)N)cc2)cc1" . Its GI50 was 5.46 µM

Entry under test: "COc1cc2c3c(n(CCCN4CCSCC4)c(=O)c2cc1OC)-c1cc2c(cc1C3=O)OCO2" . Its GI50 was > 100 µM

Entry under test: "O=C(/C=C/c1cccc(Oc2ccc(Cl)cc2)c1)c1ccccc1" . Its GI50 was 29.7 µM

Entry under test: "Cc1nn2c(-c3nc4cc(Cl)c(Cl)cc4[nH]3)c(-c3ccc(F)cc3)nc2s1" . Its GI50 was 7.4 µM

Entry under test: "CC1(C)N=C(N)N=C(N)N1c1ccc(OCCCCNC(=O)Nc2cccc(S(=O)(=O)F)c2)c(Cl)c1" . Its GI50 was 6.04 µM

Entry under test: "Cc1cn2c(/C=C3/C(=O)Nc4ccc(C(=O)O)cc43)c(C)nc2s1" . Its GI50 was > 100 µM

Entry under test: "O=S(=O)(NCCCNc1nccc(-c2c(-c3cccc(F)c3)nc3occn23)n1)c1cccc2ccccc12" . Its GI50 was 23.6 µM

Entry under test: "CCOc1cc(/C=C/C(=O)CC(=O)/C=C/c2ccc(OC(=O)CNCCN(CC)CC)c(OCC)c2)ccc1OC(=O)CNCCN(CC)CC" . Its GI50 was 1.96 µM

Entry under test: "Cc1ccccc1CNc1c2ccccc2nc2ccccc12" . Its GI50 was 2.15 µM

###

Tested on: M14 melanoma
Assay: NCI tumour cell line growth inhibition, 48 h
propertyName: TGI (µM)
Your answer is read as µM, so omit the unit and give the number.

Entry "O=S(=O)(Cc1ccccc1)SCc1ccccc1" under M14 melanoma had TGI of 27.6

Entry "O=S(=O)(/N=C(\NO)Nc1ccc(Cl)cc1)c1cc(S(=O)(=O)c2ccccc2)cs1" under M14 melanoma had TGI of 29.2

Entry "CC(=O)Oc1ccc(/C=C/C(=O)NCCOC(=O)/C=C/c2ccc(OC(C)=O)c(OC(C)=O)c2)cc1OC(C)=O" under M14 melanoma had TGI of 74.5

###

System: 786-0 renal
Experiment: NCI tumour cell line growth inhibition, 48 h
Rule: TGI of 20 µM or more gives condition met; anything lower gives condition not met.

Confirm if TGI reported for the compound "FC(F)(F)c1cnc(N/N=C(/c2ccccc2)c2ccccn2)c(Cl)c1" is 20 µM or above. condition not met

Confirm if TGI reported for the compound "Oc1ccc(-c2[nH]c3ccccc3c2-c2nc3ccccc3o2)cc1" is 20 µM or above. condition not met

Confirm if TGI reported for the compound "Clc1ccc(Cn2cc(/C=N/n3cnnc3)c3ccccc32)cc1" is 20 µM or above. condition met

Confirm if TGI reported for the compound "CCOP(=O)(/C=C\n1ccc(=O)[nH]c1=O)OCC" is 20 µM or above. condition met

Confirm if TGI reported for the compound "CC(C)(C)c1cc(C(OCCl)(C(F)(F)F)C(F)(F)F)c2c(c1)C(C(F)(F)F)(C(F)(F)F)OC21c2ccccc2C(=O)c2ccccc21" is 20 µM or above. condition met

Confirm if TGI reported for the compound CC(C)c1cc(C(C)C)c(Cl)c(Cl)c1O (tested in a mixture with another compound) is 20 µM or above. condition met

Confirm if TGI reported for the compound "CCN(CCNc1ccc(C)c2sc3cc(Cl)ccc3c(=O)c12)CC(C)(C)O" is 20 µM or above. condition not met

Confirm if TGI reported for the compound "O=C1c2ccoc2C(=O)c2oc(=O)ccc21" is 20 µM or above. condition met

Confirm if TGI reported for the compound "CC1=NN(c2nc(N)nc(/C=C\c3ccccc3)n2)C(C)(C)C1" is 20 µM or above. condition met

Confirm if TGI reported for the compound "CCN(CC)Cc1ccc(Nc2c3ccccc3nc3ccccc23)cc1" is 20 µM or above. condition not met

Confirm if TGI reported for the compound "O=C1c2ccccc2/C=C\C(c2ccccc2)=N/N1c1ccccc1Cl" is 20 µM or above. condition met

Confirm if TGI reported for the compound COc1cccc2c1[C@H]1OC(=O)NC1CCCCC2 (some centres not stated) is 20 µM or above. condition met

###

Test system: DMS 114 small cell lung
Test: NCI tumour cell line growth inhibition, 48 h
propertyName: TGI

Entry under test: CC1(C)OC2OC(COC(=O)C(c3ccccc3)c3ccccc3)C3OC(C)(C)OC3C2O1 (stereo not drawn) . Its TGI was > 100 µM

Entry under test: COc1cc2c(cc1OC)C(SC)C(=O)N(Cc1cccc(OC)c1OC)CC2 (stereo not drawn) . Its TGI was 5.49 µM

Entry under test: "O=c1c2cccc3cccc(c4n1CCCN=4)c32" . Its TGI was > 100 µM

Entry under test: "Nc1nc(-c2ccccc2)cc(-c2cc(Cl)ccc2O)n1" . Its TGI was > 100 µM

Entry under test: NNC(=O)N/N=C1\CNC(=O)C(=O)C1c1nc2ccccc2s1 (stereo not drawn) . Its TGI was > 100 µM

Entry under test: "C/C(CC(=O)Nc1cccc(Cl)c1C)=N\N=C(N)N" . Its TGI was > 100 µM

Entry under test: "Cn1cc(NC(=O)c2cc(NC(=O)CCCCCCCC(=O)Nc3cc(C(=O)Nc4cc(C(=O)NCCC(=N)N)n(C)c4)n(C)c3)cn2C)cc1C(=O)NCCC(=N)N" . Its TGI was 11.9 µM

Entry under test: "Cn1c(=O)c(C(=O)NC23CC4CC(CC(C4)C2)C3)c(O)c2ccccc21" . Its TGI was > 100 µM
